Give measured SARS-CoV-2 infection rate for each item. Keep answers brief.
- Tested on: Vero E6 infected with SARS-CoV-2
- Protocol summary: SARS-CoV-2 infection rate relative to infected DMSO; higher = more infection, active = 60 or less
- Test parameters: 24 h
Numbers only, in %.

# annotated cases, reported SARS-CoV-2 infection rate shown
Compound	System name	SARS-CoV-2 infection rate [%]
CC(C)C[C@H](NC(=O)CNC(=O)c1cc(Cl)ccc1Cl)B1OC(=O)C(CC(=O)O)(CC(=O)O)O1 (0.833333 µM)	Vero E6 infected with SARS-CoV-2	108
COc1ccc2c3c1O[C@H]1C[C@@H](O)C=C[C@@]31CCN(C)C2 [galantamine] (10 µM)	Vero E6 infected with SARS-CoV-2	102
COc1ccc2cc3[n+](cc2c1OC)CCc1cc2c(cc1-3)OCO2 [berberine] (10 µM)	Vero E6 infected with SARS-CoV-2	98
CCCC1(CCC)CCC2(CCN(CCCN(CC)CC)C2)CC1 [atiprimod] (0.833333 µM)	Vero E6 infected with SARS-CoV-2	82.5
C[C@]12CCC(=O)C=C1CC[C@@H]1[C@@H]2[C@@H](O)C[C@@]2(C)[C@H]1CC[C@]2(O)C(=O)COP(=O)(O)O [hydrocortisone-phosphate] (10 µM)	Vero E6 infected with SARS-CoV-2	98.5
CC(C)NC(=O)c1ccc(C#Cc2ccncc2)cn1 (10 µM)	Vero E6 infected with SARS-CoV-2	102

Batch request: SARS-CoV-2 infection rate for each of the following compounds.
1. CCC[C@@H]1C[C@@H](C(=O)N[C@@H]([C@H]2O[C@H](SC)[C@H](O)[C@@H](O)[C@H]2O)[C@H](C)Cl)N(C)C1 (10 µM)
2. CC(=O)c1cc2c(o1)C(=O)c1ccccc1C2=O [napabucasin] (0.833333 µM)
3. CC(=O)Nc1ccc(C(=O)Nc2ccccc2N)cc1 [tacedinaline] (0.833333 µM)
4. COc1cc2ncnc(Nc3cccc(Cl)c3)c2cc1OC [tyrphostin-AG-1478] (10 µM)
5. O=C(NCc1ccccc1)c1csc(Nc2ccncn2)n1 [thiazovivin] (0.833333 µM)
6. CC(=O)OCC(CCn1cnc2cnc(N)nc21)COC(C)=O [famciclovir] (10 µM)
7. CCCCCCCCN=c1ccn(CCCCCCCCCCn2ccc(=NCCCCCCCC)cc2)cc1 [octenidine] (0.833333 µM)

Ans:
[102, 89, 110, 118, 99, 102, 108]

For every item below, please supply its SARS-CoV-2 infection rate.
1. CCn1c(=O)n(C2=C(CO)CN(CC3CCCCCCC3)CC2)c2ccccc21 [trap-101] (10 µM)
2. CCN1C[C@]2(OC(=O)c3ccccc3NC(C)=O)CC[C@H](OC)[C@@]34[C@@H]2C[C@@H]([C@@H]13)[C@@]1(O)C[C@H](OC)[C@H]2C[C@@H]4[C@]1(O)[C@H]2OC [lappaconite] (10 µM)
3. CC(C)(C)c1ccc(-c2nc3c(N4CCN(Cc5ccc6nccnc6c5)CC4)cccc3[nH]2)cc1 (0.833333 µM)

Ans:
[103, 118, 102]
